Listed below: melting point values for each entry.

Completed entries (count: 10):
CO/N=C/C1=NNC(=O)N(/N=C/c2cncnc2)C1    244 to 245 °C
CO/N=C/C1=NNC(=O)N(/N=C/c2cnccn2)C1    233 to 234 °C
CC1(C)CC(C2=NNC(=O)N(/N=C/c3cncc(F)c3)C2)=NO1    260 °C (dec.)
CCO/N=C/C1=NNC(=O)N(/N=C/c2cccnc2)C1    233 to 234 °C
CO/N=C/C1=NNC(=O)N(/N=C/c2cncc(F)c2)C1    226 to 227 °C
O=C1NN=C(C2=NOC(C(F)(F)F)(C(F)(F)F)C2)CN1/N=C/c1cccnc1    270 °C (dec.)
O=C1NN=C(C2=NOC(C(F)(F)F)(C(F)(F)F)C2)CN1/N=C/c1cncc(F)c1    290 °C (dec.)
CO/N=C/C1=NNC(=O)N(/N=C/c2ccc[n+]([O-])c2)C1    229 °C (dec.)
CO/N=C/C1=NNC(=O)N(/N=C/c2cccnc2)C1    237 to 238 °C
CO/N=C(\C)C1=NNC(=O)N(/N=C/c2cccnc2)C1    230 to 231 °C

Qu. Sample `CN(C)/N=C/C1=NNC(=O)N(/N=C/c2cccnc2)C1` — what was its melting point?
Ans. 229 °C (dec.)

Qu. Sample `CC1(C)CC(C2=NNC(=O)N(/N=C/c3cccnc3)C2)=NO1` — what was its melting point?
Ans. 212 °C (dec.)

All values here come from patent US9024019B2.
